Cited source: patent US20260265238A1

# study.target: SMARCA2-HiBiT HeLa cells (protein which is expressed from the SMARCA2 gene) (Homo sapiens, UniProt P51531)
# Construct: protein which is expressed from the SMARCA2 and SMARCA4 genes; host or cells: HeLa (SMARCA2-HiBiT engineered line)
# Sequence (P51531 whole entry): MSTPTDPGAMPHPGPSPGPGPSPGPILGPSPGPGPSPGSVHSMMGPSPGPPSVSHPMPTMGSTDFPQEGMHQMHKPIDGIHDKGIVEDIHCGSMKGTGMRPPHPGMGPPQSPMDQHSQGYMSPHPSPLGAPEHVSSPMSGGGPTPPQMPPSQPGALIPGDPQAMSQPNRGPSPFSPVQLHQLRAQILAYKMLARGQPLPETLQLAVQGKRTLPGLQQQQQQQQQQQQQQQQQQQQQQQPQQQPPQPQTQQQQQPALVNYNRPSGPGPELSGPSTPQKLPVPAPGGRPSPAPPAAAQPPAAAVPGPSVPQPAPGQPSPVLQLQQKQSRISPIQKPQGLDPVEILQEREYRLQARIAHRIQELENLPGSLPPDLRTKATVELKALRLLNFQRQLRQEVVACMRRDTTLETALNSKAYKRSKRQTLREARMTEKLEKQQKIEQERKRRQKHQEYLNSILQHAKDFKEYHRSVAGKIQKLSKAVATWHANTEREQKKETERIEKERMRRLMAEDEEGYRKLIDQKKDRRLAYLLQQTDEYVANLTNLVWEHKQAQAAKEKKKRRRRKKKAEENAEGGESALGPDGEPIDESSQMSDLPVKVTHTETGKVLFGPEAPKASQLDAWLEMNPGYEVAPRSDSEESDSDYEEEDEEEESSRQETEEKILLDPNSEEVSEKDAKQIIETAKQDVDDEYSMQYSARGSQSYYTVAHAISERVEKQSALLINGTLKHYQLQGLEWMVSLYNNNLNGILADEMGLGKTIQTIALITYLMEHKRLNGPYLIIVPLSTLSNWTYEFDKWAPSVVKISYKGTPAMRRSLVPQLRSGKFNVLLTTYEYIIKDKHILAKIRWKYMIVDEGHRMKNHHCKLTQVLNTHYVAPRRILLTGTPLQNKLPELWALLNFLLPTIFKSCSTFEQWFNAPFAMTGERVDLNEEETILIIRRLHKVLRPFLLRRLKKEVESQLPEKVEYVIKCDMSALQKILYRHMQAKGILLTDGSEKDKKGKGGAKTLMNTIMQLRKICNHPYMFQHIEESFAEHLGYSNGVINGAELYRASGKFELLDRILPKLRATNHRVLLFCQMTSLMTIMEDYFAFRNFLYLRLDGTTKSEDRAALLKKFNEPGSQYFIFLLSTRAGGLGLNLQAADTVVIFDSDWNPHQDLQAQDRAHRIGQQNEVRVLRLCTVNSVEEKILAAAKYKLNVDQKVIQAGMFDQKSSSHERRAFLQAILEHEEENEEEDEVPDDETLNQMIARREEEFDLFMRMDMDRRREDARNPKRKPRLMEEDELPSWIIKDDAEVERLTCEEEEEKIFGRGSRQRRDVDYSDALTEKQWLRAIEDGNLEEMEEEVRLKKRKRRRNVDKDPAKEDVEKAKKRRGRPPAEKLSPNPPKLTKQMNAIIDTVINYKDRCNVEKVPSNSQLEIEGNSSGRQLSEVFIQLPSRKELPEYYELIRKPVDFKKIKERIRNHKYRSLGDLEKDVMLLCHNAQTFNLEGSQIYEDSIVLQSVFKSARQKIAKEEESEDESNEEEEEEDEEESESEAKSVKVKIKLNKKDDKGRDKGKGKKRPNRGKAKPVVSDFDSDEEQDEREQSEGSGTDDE
# method.summary: SMARCA2 degradation assay (HiBiT-fusion HeLa cell line, 24 h, luminescence)
# Type: cell-based
# measurement.setup: @ 1 μM
experimental.endpoint: SMARCA2 % Degradation @ 1 μM

Worked cases, answers included:
C[C@@H]1CCN(c2cc(-c3ccccc3O)nnc2N)CCN1c1ccnc(/C=C/C2CC2)n1 [Compound P-171] : ++ (++=30-70%)
Nc1nnc(-c2ccccc2O)cc1N1CCCN(c2ccnc(C#CCN[C@H]3CCOC3)n2)CC1 [Compound P-275] : +++ (+++=>70%)
C[C@@H]1CCN(c2cc(-c3ccccc3O)nnc2N)CCN1c1ccnc(C#CCN2CCC(F)(F)C2)n1 [Compound P-243] : ++ (++=30-70%)
Cn1ccc(C(=O)NCC#Cc2nccc(N3CCN(c4cc(-c5ccccc5O)nnc4N)CC3)n2)n1 [Compound P-7] : ++ (++=30-70%)
C[C@@H]1CCN(c2cc(-c3ccccc3O)nnc2N)CCN1c1nc(C#CCN2CC3CC2C3)ncc1F [Compound P-189] : ++ (++=30-70%)
C[C@@H]1CCN(c2cc(-c3ccccc3O)nnc2N)CCN1c1ccnc(/C=C/CN2CCOCC2)n1 [Compound P-167] : ++ (++=30-70%)
Nc1nnc(-c2ccccc2O)cc1N1C2CCC1CN(c1ccnc(C#CCn3cncn3)n1)C2 [Compound P-283] : ++ (++=30-70%)
CC(C)(C)OC(=O)N1CCC(C#Cc2nccc(N3CCCN(c4cc(-c5ccccc5O)nnc4N)CC3)n2)CC1 [Compound P-351] : ++ (++=30-70%)

Using the record for Nc1nnc(-c2ccccc2O)cc1N1CCC2(CCCN(c3ccnc(C#CCO)n3)C2)CC1 [Compound P-123] , state its measured SMARCA2 % Degradation @ 1 μM.
++ (++=30-70%)

Using the record for CC(C)(C)OC(=O)N1Cc2cn(CC#Cc3nccc(N4CCCN(c5cc(-c6ccccc6O)nnc5N)CC4)n3)nc2C1 [Compound P-105] , state its measured SMARCA2 % Degradation @ 1 μM.
+++ (+++=>70%)

Using the record for Nc1nnc(-c2ccccc2O)cc1OC1CC2CN(c3ccnc(C#CCN4CCC4)n3)CC2C1 (centres unmarked) [Compound P-197] , state its measured SMARCA2 % Degradation @ 1 μM.
++ (++=30-70%)

Using the record for Nc1nnc(-c2ccccc2O)cc1N1CCC2(CCCN(c3ccnc(C#CCNC(=O)c4cc5n(n4)CCC5)n3)C2)CC1 [Compound P-129] , state its measured SMARCA2 % Degradation @ 1 μM.
++ (++=30-70%)

Using the record for CC1(F)CCN(CC#Cc2nccc(N3CCC4(CC3)CCN(c3cc(-c5ccccc5O)nnc3N)C4)n2)C1 (centres unmarked) [Compound P-195] , state its measured SMARCA2 % Degradation @ 1 μM.
++ (++=30-70%)

Using the record for Nc1nnc(-c2ccccc2O)cc1N1CCCN(c2ccnc(C#Cc3cnc4cnccn34)n2)CC1 [Compound P-135] , state its measured SMARCA2 % Degradation @ 1 μM.
++ (++=30-70%)

###

Listed here are compounds together with their documented DC50.
# study.target: SMARCA4-HiBiT HeLa cells (protein which is expressed from the SMARCA4 gene) (Homo sapiens, UniProt P51532)
# Construct: protein which is expressed from the SMARCA2 and SMARCA4 genes; host or cells: HeLa (SMARCA4-HiBiT engineered line)
# Sequence (P51532 whole entry): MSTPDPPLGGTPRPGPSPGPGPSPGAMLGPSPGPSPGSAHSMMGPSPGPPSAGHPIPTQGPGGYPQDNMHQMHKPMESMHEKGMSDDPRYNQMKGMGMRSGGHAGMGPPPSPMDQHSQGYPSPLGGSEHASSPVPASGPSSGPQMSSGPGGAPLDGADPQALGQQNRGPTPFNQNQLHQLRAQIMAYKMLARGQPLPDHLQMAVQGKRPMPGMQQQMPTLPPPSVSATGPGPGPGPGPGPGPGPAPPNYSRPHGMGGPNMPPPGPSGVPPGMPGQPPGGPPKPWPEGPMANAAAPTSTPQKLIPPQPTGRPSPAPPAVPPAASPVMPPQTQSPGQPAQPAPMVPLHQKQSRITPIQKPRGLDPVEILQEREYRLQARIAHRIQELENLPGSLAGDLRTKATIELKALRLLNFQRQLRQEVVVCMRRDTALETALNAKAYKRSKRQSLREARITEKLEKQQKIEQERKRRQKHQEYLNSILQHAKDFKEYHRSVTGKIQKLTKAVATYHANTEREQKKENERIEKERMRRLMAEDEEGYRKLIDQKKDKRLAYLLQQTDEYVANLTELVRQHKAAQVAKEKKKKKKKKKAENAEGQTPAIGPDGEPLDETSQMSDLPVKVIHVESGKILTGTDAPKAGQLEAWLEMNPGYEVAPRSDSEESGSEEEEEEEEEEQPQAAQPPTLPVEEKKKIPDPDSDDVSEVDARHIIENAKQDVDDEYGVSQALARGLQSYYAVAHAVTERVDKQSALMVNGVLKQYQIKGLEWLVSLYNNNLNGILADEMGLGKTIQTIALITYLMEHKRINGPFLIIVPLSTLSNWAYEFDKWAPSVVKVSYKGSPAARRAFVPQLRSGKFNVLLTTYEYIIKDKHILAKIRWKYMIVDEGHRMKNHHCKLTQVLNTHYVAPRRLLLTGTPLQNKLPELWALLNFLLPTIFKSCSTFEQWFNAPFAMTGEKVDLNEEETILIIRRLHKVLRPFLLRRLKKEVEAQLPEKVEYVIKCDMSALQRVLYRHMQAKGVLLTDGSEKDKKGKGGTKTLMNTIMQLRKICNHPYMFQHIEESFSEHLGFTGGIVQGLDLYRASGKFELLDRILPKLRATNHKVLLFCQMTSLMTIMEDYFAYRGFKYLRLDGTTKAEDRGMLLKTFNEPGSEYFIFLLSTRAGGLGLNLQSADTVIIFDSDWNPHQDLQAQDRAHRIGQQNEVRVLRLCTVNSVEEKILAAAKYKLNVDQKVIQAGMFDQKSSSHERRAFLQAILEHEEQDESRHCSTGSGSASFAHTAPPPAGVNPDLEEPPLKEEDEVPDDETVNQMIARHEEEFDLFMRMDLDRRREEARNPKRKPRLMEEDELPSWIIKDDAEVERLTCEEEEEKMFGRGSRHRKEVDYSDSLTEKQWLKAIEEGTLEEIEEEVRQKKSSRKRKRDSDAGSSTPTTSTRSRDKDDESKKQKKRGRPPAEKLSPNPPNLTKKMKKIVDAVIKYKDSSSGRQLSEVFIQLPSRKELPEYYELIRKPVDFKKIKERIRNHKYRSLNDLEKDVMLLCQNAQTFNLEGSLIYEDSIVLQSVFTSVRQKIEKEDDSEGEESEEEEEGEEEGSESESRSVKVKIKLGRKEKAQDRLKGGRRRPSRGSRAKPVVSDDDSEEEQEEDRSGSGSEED
# method.summary: SMARCA4 degradation assay (HiBiT-fusion HeLa cell line, 24 h, luminescence)
# Format: cell-based

Worked cases, answers included:
CCC1CN(CC#Cc2nccc(N3CCCN(c4cc(-c5ccccc5O)nnc4N)CC3)n2)c2ccccc2O1 (centres unmarked) [Compound P-360] : 50 to 500 nM
COC[C@@H](C)NCC#Cc1nccc(N2CCCN(c3cc(-c4ccccc4O)nnc3N)CC2)n1 [Compound P-277] : 50 to 500 nM
CS(=O)(=O)N1CCC(C#Cc2nccc(N3CCCN(c4cc(-c5ccccc5O)nnc4N)CC3)n2)CC1 [Compound P-352] : 500 to 5000 nM
CC(C#Cc1nccc(N2CCN(c3cc(-c4ccccc4O)nnc3N)CC2)n1)NC(=O)c1cc2ncccn2n1 (centres unmarked) [Compound P-95] : < 50 nM
CC(C)(C)OC(=O)NCC#Cc1nccc(N2CCCN(c3cc(-c4ccccc4O)nnc3N)CCC2)n1 [Compound P-304] : 50 to 500 nM

Using the record for Nc1nnc(-c2ccccc2O)cc1N1CCN(c2ccnc(C#CCNC(=O)c3cc4n(n3)CCCC4)n2)CC1 [Compound P-69] , state its measured DC50.
< 50 nM

###

Listed here are compounds together with their documented inhibition at 1 µM.
# study.target: SMARCA4-HiBiT HeLa cells (protein which is expressed from the SMARCA4 gene) (Homo sapiens)
# Construct: protein which is expressed from the SMARCA2 and SMARCA4 genes; host or cells: HeLa (SMARCA4-HiBiT engineered line)
# method.summary: SMARCA4 degradation assay (HiBiT-fusion HeLa cell line, 24 h, luminescence)
# Assay type: cell-based
# measurement.setup: @ 1 μM

C[C@@H]1CCN(c2cc(-c3ccccc3O)nnc2N)CCN1c1ccnc(C#CCN2CC[C@H](F)C2)n1 : 30 to 70%

Fill in inhibition at 1 µM for C[C@@H]1CCN(c2cc(-c3ccccc3O)nnc2N)CCN1c1ccnc(/C=C/CN(C)C)n1 tested with SMARCA4-HiBiT HeLa cells (protein which is expressed from the SMARCA4 gene) (Homo sapiens).
30 to 70%

Fill in inhibition at 1 µM for Cn1ccc(OCC#Cc2nccc(N3CCCN(c4cc(-c5ccccc5O)nnc4N)CC3)n2)n1 tested with SMARCA4-HiBiT HeLa cells (protein which is expressed from the SMARCA4 gene) (Homo sapiens).
> 70%

Fill in inhibition at 1 µM for C[C@H]1CN(c2cc(-c3ccccc3O)nnc2N)[C@@H](C)CN1c1ccnc(C#CCNC(=O)c2cc3ncccn3n2)n1 tested with SMARCA4-HiBiT HeLa cells (protein which is expressed from the SMARCA4 gene) (Homo sapiens).
30 to 70%

###

Listed here are compounds together with their documented DC50.
# study.target: SMARCA4-HiBiT HeLa cells (protein which is expressed from the SMARCA4 gene) (Homo sapiens, UniProt P51532)
# Construct: protein which is expressed from the SMARCA2 and SMARCA4 genes; host or cells: HeLa (SMARCA4-HiBiT engineered line)
# method.summary: SMARCA4 degradation assay (HiBiT-fusion HeLa cell line, 24 h, luminescence)
# Assay type: cell-based

Worked cases, answers included:
Nc1nnc(-c2ccccc2O)cc1N1CCCN(c2ccnc(C#CCNC(=O)NC3CCC3)n2)CC1 : 0.05 to 0.5 µM
Nc1nnc(-c2ccccc2O)cc1N1CC2CCC(C1)N2c1ccnc(C#CCn2nnc3ccccc32)n1 : 0.5 to 5 µM
C[C@@H]1CCN(c2cc(-c3ccccc3O)nnc2N)CCN1c1ccnc(C#CCN2CCC(C)(F)C2)n1 (stereo partly drawn) : < 0.05 µM
COC/C=C/c1nccc(N2CCCN(c3cc(-c4ccccc4O)nnc3N)CC2)n1 : 0.05 to 0.5 µM
C[C@@H]1CCN(c2cc(-c3ccccc3O)nnc2N)CCN1c1ccnc(C#CCN2CC3CC2C3)n1 : < 0.05 µM
CC(C)(C)OC(=O)N1C2CCC1CN(CC#Cc1nccc(N3CCCN(c4cc(-c5ccccc5O)nnc4N)CC3)n1)C2 : 0.5 to 5 µM

Using the record for C[C@@H]1CCN(c2cc(-c3ccccc3O)nnc2N)CCN1c1ccnc(C#CCn2ccnc2)c1 , state its measured DC50.
0.05 to 0.5 µM

Using the record for Nc1nnc(-c2ccccc2O)cc1N1CC2CCC(C1)N2c1ccnc(C#CCCCNC(=O)c2cc3ncccn3n2)n1 , state its measured DC50.
0.5 to 5 µM

Using the record for Nc1nnc(-c2ccccc2O)cc1N1CCN(c2ccnc(C#CCNC(=O)c3cnc4ccccn34)n2)CC1 , state its measured DC50.
0.05 to 0.5 µM

Using the record for C[C@@H]1CCN(c2cc(-c3ccccc3O)nnc2N)CCN1c1ccnc(C#CCN2[C@@H]3CC[C@H]2C[C@@H](O)C3)n1 , state its measured DC50.
0.05 to 0.5 µM

Using the record for CC(C)(C)OC(=O)N1CCC(F)(C#Cc2nccc(N3CCCN(c4cc(-c5ccccc5O)nnc4N)CC3)n2)CC1 , state its measured DC50.
0.05 to 0.5 µM

Using the record for C[C@@H]1CCN(c2cc(-c3ccccc3O)nnc2N)CCN1c1cc(C#CCN(C)C)ncc1Cl , state its measured DC50.
0.05 to 0.5 µM

Using the record for C[C@@H]1CCN(c2cc(-c3ccccc3O)nnc2N)CCN1c1ccnc(C#CCN2CCC3(CCC3)C2)n1 , state its measured DC50.
< 0.05 µM

Using the record for CC1(C)CN(CC#Cc2nccc(N3CCCN(c4cc(-c5ccccc5O)nnc4N)CC3)n2)CCO1 , state its measured DC50.
0.5 to 5 µM

Using the record for Nc1nnc(-c2ccccc2O)cc1N1CCCN(c2ccnc(C#CC34CCCN3CCC4)n2)CC1 , state its measured DC50.
0.05 to 0.5 µM
